Biological target: T1, Human TIGIT protein with HIS tag (human, UniProt Q495A1 22-141)
T1 construct: A soluble analyte is probably only the extracellular part; also called human TIGIT recombinant protein; not shown: HIS tag
T1 sequence: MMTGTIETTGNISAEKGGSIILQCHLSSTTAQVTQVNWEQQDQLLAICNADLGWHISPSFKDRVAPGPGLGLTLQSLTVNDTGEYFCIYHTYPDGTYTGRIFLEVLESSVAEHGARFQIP
Experiment: SPR Biacore T200; antibody Fc-captured, TIGIT-His analyte
test.readout: kon (M⁻¹ s⁻¹)
// units = M⁻¹ s⁻¹; emit number, no label

Worked set:
Request: Entry 121C2F10B5 (antibody, V domains shown, Mouse monoclonal antibody; also called mouse anti-human TIGIT monoclonal antibody 121C2F10B5) VH: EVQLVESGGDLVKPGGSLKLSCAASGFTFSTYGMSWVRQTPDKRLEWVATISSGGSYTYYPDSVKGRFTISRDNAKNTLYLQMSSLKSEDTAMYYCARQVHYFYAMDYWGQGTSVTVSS VL: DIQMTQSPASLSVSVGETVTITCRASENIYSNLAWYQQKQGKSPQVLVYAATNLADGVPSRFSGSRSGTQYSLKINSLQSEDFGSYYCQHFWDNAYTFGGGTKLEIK : reported kon = ?
Result: 1.3e+06

Request: Param item = 128E3G7F5 (antibody, V domains shown, Mouse monoclonal antibody; also called mouse anti-human TIGIT monoclonal antibody 128E3G7F5) VH: EVLLQQSGPELVKTGASVKISCKASGYSFTAYYMHWVKQSHGKSLEWIGYISCYNGATTYNQKFKGKATFTVDTSSTTAYMQFNSLTSEDSAVYYCARRVYYGYDEALVYWGQGTSVTVSS VL: DIVMTQSPSSLSVSAGEKVTMTCKSSQSLLNSGNQKNYLAWYQQKPGQPPKLLIYGASTRGSGVPDRFTGSGSGTDFTLTISSVQAEDLAVYYCQNDHSYPYTFGGGTKLEIK ; retrieve measured kon.
Result: 1.2e+06

Let's switch to this binder now.
Request: Given the entry 139E2C2D2 (antibody, V domains shown, Mouse monoclonal antibody; also called mouse anti-human TIGIT monoclonal antibody 139E2C2D2) VH: EVQLVESGGDLVKPGGSLKLSCAASGFTFSSYGMSWVRQTPDKRLEWVAIISSGGNYTYYPDSVKGRFTISRDNAKNTLYLQMSSLKSEDTAMYYCARQIHYFFAMDYWGQGTSVTVSS VL: DIQMTQSPASLSVSVGETVTITCRASENIYSNLAWYQQKQGKSPQLLVYAATNLADGAPSRFSGSRSGTQYSLKINSLQSEDFGSYYCQHFWGTAYTFGGGTKLEIK , report its measured kon.
Result: 2.1e+06
